assay: Human Phase 1 pharmacokinetics of GC4403; type: in vivo; settings: both sexes, plasma, 7.4 mg IV over 30 minutes, read-out: AUC0-24 h
Measured parameter: AUC(0-t) (ng·h/mL)
Record the value in ng·h/mL, omitting the unit from your answer.

Asked: Quick one: AUC(0-t) for [Cl][Mn-5]1234([Cl])[n+]5c6cccc5C[NH+]1[C@@H]1CCCC[C@H]1[NH+]2CC[NH+]3[C@@H]1CCCC[C@H]1[NH+]4C6 (stereo partly shown) [GC4403] ?
Given back: 595

* * *

experiment: Human Phase 1 pharmacokinetics of GC4403; format: in vivo; settings: both sexes, plasma, 25 mg IV over 30 minutes, read-out: AUC0-24 h
Measured parameter: AUC(0-t) (ng·h/mL)
Record the value in ng·h/mL, omitting the unit from your answer.

Asked: Quick one: AUC(0-t) for [Cl][Mn-5]1234([Cl])[n+]5c6cccc5C[NH+]1[C@@H]1CCCC[C@H]1[NH+]2CC[NH+]3[C@@H]1CCCC[C@H]1[NH+]4C6 (stereo partly shown) [GC4403] ?
Given back: 2560

These data points were gathered from patent US11826373B2.
